- System: HT-29
- ASSAY_PROTOCOL: MTT cytotoxicity assay, HT-29
- Type: cell-based, human
- RUN_CONDITIONS: Homo sapiens, HT-29, 72 h, read-out: Cytotoxicity IC50, HT-29
pIC50: −log10 of the molar value.
Below, each entry is listed with its recorded pIC50.

MOLECULE | pIC50
COc1cc(-c2coc3cc(O)cc(O)c3c2=O)c(OC)cc1O | 4.49
COc1cc(O)c2c(c1)OCC(c1cc(OC)c(OC)cc1OC)C2=NO (stereo not shown) | 4.41
COc1cc(OC)c2c(=O)c(-c3cc(OC)c(OC)cc3OC)coc2c1 | 3.81
COc1cc(O)c2c(c1)OCC(c1cc(OC)c(OC)cc1OC)C2=O (stereo not shown) | 4.72

----------
- ASSAY_PROTOCOL: MTT cytotoxicity assay, vero cells
- Format: cell-based, African Green Monkey
- RUN_CONDITIONS: African green monkey, Vero cells (normal kidney cells)
The reader will find reported IC50 at 72 h values listed item by item below.
PARAMETER: IC50 at 72 h (µM)

COMPOUND | PARAMETER | REPORTED_RELATION | QUANTITATIVE_RESULT
COc1cc(OC)c2c(c1)OCC(c1cc(OC)c(OC)cc1OC)C2=O (stereo not drawn) | IC50 at 72 h | = | 116
COc1cc(-c2coc3cc(OC(C)=O)cc(O)c3c2=O)c(OC)cc1OC(C)=O | IC50 at 72 h | = | 112
COc1cc(OC)c2c(=O)c(-c3cc(OC)c(OC)cc3OC)coc2c1 | IC50 at 72 h | > | 269
COc1cc(O)c2c(=O)c(-c3cc(OC)c(OC)cc3OC)coc2c1 | IC50 at 72 h | = | 13.5
COc1cc(O)c2c(c1)OCC(c1cc(OC)c(OC)cc1OC)C2=O (stereo not drawn) | IC50 at 72 h | = | 33.5
COc1cc(-c2coc3cc(O)cc(O)c3c2=O)c(OC)cc1O | IC50 at 72 h | = | 88.8
COc1cc(O)c2c(c1)OCC(c1cc(OC)c(OC)cc1OC)C2=NO (stereo not drawn) | IC50 at 72 h | = | 29.8
COc1cc(C2COc3cc(O)cc(O)c3C2=O)c(OC)cc1O (stereo not drawn) | IC50 at 72 h | = | 93.6
COc1cc(OC)c2c(c1)OCC(c1cc(OC)c(OC)cc1OC)C2 (stereo not drawn) | IC50 at 72 h | = | 31.1

These data points were gathered from paper PMC9201701.
